Quick list: GI50 per entry.
system: SW-620; test: Growth inhibition of human SW620 cells after 48 hrs by MTT assay; format: functional; conditions: SW-620, 48 h
Quick reminder: number only, in µM, skip the unit.

These solved cases illustrate the format of a correct answer.
{"GIVEN SMILES": "COc1ccc(-c2cc(-c3ccc([N+](=O)[O-])cc3)[nH]n2)cc1OC", "GI50 / µM": 26.4}
{"GIVEN SMILES": "COc1ccccc1-c1cc(-c2ccc(N)cc2)[nH]n1", "GI50 / µM": 21.1}
{"GIVEN SMILES": "Oc1ccc(-c2cc(-c3ccccc3-c3ccccc3)n[nH]2)cc1", "GI50 / µM": 25.9}
{"GIVEN SMILES": "COc1ccc(-c2cc(-c3ccc([N+](=O)[O-])cc3)[nH]n2)cc1", "GI50 / µM": 14.3}
{"GIVEN SMILES": "COc1ccc(-c2cc(-c3ccc4ccccc4c3)n[nH]2)cc1", "GI50 / µM": 26.9}
{"GIVEN SMILES": "Nc1ccc(-c2cc(-c3ccccc3)n[nH]2)cc1", "GI50 / µM": 25.4}
{"GIVEN SMILES": "O=[N+]([O-])c1ccc(-c2cc(-c3ccc(Br)cc3)n[nH]2)cc1", "GI50 / µM": 28.6}
{"GIVEN SMILES": "O=[N+]([O-])c1ccc(-c2cc(-c3ccccc3-c3ccccc3)n[nH]2)cc1", "GI50 / µM": 12.2}
{"GIVEN SMILES": "Oc1ccccc1-c1cc(-c2ccccc2-c2ccccc2)n[nH]1", "GI50 / µM": 10.6}
{"GIVEN SMILES": "O=[N+]([O-])c1ccc(-c2cc(-c3ccc(Cl)cc3)n[nH]2)cc1", "GI50 / µM": 12.2}

Request: For `COc1ccc(-c2cc(-c3ccc(C(F)(F)F)cc3)n[nH]2)cc1` , what is its reported GI50?
Result: 11.2
